Cited source: patent US20080194590A1

Listing: [33P]-2MeS-ADP Binding to Recombinant Human P2Y12 Membranes (Assay 3) % Inhibition of selected compounds
TEST SYSTEM: P2Y12 receptor (Homo sapiens, UniProt Q9H244)
Sequence (Q9H244 whole entry): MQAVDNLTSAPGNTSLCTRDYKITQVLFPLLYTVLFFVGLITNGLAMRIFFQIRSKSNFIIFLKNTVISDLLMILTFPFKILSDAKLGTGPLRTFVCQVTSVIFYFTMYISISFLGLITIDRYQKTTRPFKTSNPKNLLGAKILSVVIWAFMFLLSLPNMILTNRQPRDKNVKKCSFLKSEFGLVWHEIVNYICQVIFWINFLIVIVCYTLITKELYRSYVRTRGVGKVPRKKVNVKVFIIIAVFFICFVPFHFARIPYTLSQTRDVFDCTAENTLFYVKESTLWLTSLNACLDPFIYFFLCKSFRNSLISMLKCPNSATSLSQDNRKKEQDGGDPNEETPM
PROTOCOL DETAILS: Human P2Y12 recombinant cell membrane binding assay with 33P 2MeS-ADP (Assay 3)
Set-up: expressed in transfected cells; host or cells: HEK cells
CONDITION DETAILS: highest concentration tested 10 μM
ASSAY METRIC: [33P]-2MeS-ADP Binding to Recombinant Human P2Y12 Membranes (Assay 3) % Inhibition

{"COMPOUND": "CCc1cc2c(N3CCN(C(=O)c4ccc(-c5ccccc5)cc4)CC3)nc(NC[C@@H](O)CO)nc2s1 [Example 27]", "RESULT": "93.86%"}
{"COMPOUND": "CCc1cc2c(N3CCN(C(=O)c4ccc(-c5ccccc5)cc4)CC3)nc(NC[C@H](O)CO)nc2s1 [Example 26]", "RESULT": "94.85%"}
{"COMPOUND": "CCc1cc2c(N3CCN(C(=O)Cc4ccccc4)CC3)nc(NCCO)nc2s1 [Example 11]", "RESULT": "82.93%"}
{"COMPOUND": "CCc1cc2c(N3CCN(C(=O)c4ccc(-c5ccccc5)cc4)CC3)nc(NCCN(C)C)nc2s1 [Example 28]", "RESULT": "98.44%"}
{"COMPOUND": "CCc1cc2c(N3CCN(C(=O)CC(F)(F)F)CC3)nc(NC[C@@H](O)CO)nc2s1 [Example 36]", "RESULT": "70.7%"}
{"COMPOUND": "CCc1cc2c(N3CCN(C(=O)c4cccc(-c5ccccc5)c4)CC3)nc(NC[C@H](O)CO)nc2s1 [Example 29]", "RESULT": "93.19%"}
{"COMPOUND": "CCc1cc2c(N3CCN(C(=O)c4cccc(-c5ccccc5)c4)CC3)nc(NC[C@@H](O)CO)nc2s1 [Example 30]", "RESULT": "96.44%"}
